target: Xanthine dehydrogenase/oxidase (Homo sapiens); assay: Inhibitory activity against Xanthine Oxidase
Assay metric: IC50 (µM)
Your answer should be a plain number; it is taken to be in µM.

Completed entries (count: 6):
>>> number("CCCCCOC(=O)C(=O)Nc1[nH]cnc1C(N)=O")
1.92
>>> number("CCCCOC(=O)C(=O)Nc1nc[nH]c1C(N)=O")
4.29
>>> number("CCCCCC(=O)Nc1nc[nH]c1C(N)=O")
12.6
>>> number("CCCCCNc1nc2nc[nH]c2c(=O)[nH]1")
28.3
>>> number("CCCCCCNc1nc(O)c2[nH]cnc2n1")
30.5
>>> number("CCCCCCOC(=O)C(=O)Nc1nc[nH]c1C(N)=O")
1.11

Query string: I'm curious: which IC50 was measured for CCCCSc1nc2nc[nH]c2c(=O)[nH]1 tested on Xanthine dehydrogenase/oxidase (Homo sapiens)?
Result string: 3.88

Query string: Request: CCCCNc1nc(O)c2[nH]cnc2n1
Result string: 25.5

* * *

target: Xanthine dehydrogenase/oxidase (Homo sapiens); assay: Inhibitory activity against Xanthine Oxidase; Inactive
Assay metric: IC50

Completed entries (count: 4):
>>> result("CCCCCSc1nc(N)cc(O)n1")
"Not Active"
>>> result("CCCCCCSc1nc(N)cc(O)n1")
"Not Active"
>>> result("CCCCSc1nc(N)cc(O)n1")
"Not Active"
>>> result("CCCCC(=O)Nc1nc(O)c2[nH]cnc2n1")
"Not Active"

Query string: Look at this compound and give its reported IC50. CCCCCC(=O)Nc1nc(O)c2[nH]cnc2n1
Result string: Not Active

* * *

molecular target: Xanthine dehydrogenase/oxidase (Homo sapiens, UniProt P47989); experiment: Inhibitory activity against Xanthine Oxidase
Sequence (P47989 whole entry): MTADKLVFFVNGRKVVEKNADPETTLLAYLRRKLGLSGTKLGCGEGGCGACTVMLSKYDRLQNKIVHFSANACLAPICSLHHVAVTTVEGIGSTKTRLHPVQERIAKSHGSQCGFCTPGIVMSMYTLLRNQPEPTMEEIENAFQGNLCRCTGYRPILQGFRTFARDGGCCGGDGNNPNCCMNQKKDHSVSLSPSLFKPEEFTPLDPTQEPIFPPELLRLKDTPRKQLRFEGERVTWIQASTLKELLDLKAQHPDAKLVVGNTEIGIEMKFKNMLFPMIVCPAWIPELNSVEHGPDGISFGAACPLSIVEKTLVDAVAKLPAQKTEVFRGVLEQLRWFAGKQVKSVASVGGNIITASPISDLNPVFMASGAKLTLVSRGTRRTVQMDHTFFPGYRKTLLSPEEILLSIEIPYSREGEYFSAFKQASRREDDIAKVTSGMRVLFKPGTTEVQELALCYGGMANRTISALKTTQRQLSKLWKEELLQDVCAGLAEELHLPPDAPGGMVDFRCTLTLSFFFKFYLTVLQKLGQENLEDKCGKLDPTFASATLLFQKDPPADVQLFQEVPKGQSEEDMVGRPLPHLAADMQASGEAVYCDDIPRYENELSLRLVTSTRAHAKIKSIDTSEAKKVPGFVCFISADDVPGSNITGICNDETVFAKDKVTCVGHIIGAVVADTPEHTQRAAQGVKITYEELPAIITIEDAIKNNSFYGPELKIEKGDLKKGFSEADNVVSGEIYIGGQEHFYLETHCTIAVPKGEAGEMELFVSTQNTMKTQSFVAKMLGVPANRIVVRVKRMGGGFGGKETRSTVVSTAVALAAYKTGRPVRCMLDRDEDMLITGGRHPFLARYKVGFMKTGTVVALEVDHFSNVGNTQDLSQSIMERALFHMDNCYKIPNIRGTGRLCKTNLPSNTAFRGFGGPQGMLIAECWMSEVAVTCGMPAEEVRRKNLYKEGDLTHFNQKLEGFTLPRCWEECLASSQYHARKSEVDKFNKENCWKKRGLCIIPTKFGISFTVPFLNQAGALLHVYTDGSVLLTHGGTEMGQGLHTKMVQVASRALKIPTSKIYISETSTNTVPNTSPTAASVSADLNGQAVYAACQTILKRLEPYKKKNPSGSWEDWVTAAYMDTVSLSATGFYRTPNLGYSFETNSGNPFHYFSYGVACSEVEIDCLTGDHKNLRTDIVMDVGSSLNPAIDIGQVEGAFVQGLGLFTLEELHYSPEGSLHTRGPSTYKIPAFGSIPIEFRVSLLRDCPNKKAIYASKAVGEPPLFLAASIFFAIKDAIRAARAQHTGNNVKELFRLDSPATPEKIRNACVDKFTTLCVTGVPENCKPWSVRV
Each record here notes measured pKi.
# pKi: negative log10 of molar concentration; output just the value

>>> number("O=c1[nH]c(=S)[nH]c2nc(-c3ccccc3)[nH]c12")
5.68
>>> number("CCCCCCSc1nc2nc(-c3ccccc3)[nH]c2c(=O)[nH]1")
6.32
>>> number("CCCCCOC(=O)C(=O)Nc1[nH]cnc1C(N)=O")
5.98
>>> number("Oc1nc2nc3n(c(O)c-2n1)CCS3")
4.40
>>> number("CSc1nc2nc(-c3ccccc3)[nH]c2c(=O)[nH]1")
5.24
>>> number("Oc1c2nc(S)nc-2nc2n1CCCS2")
3.88
>>> number("Oc1nc2nc(O)n3c(c-2n1)SCC3")
5.90
>>> number("Oc1nc2nc3n(c(O)c-2n1)CCCS3")
4.18
>>> number("CCCCSc1nc2nc[nH]c2c(=O)[nH]1")
6.75
>>> number("Oc1c2nc(S)nc-2nc2n1CCS2")
4.61

Query string: Look at this compound and give its reported pKi. CCCCCNc1nc2nc[nH]c2c(=O)[nH]1
Result string: 4.59

Query string: Request: CCCCCCSc1nc(O)c2[nH]c(O)nc2n1
Result string: 6.80

* * *

target: Xanthine dehydrogenase/oxidase (Homo sapiens); experiment: Inhibitory activity against Xanthine Oxidase
Assay metric: Ki (µM)
Your answer should be a plain number; it is taken to be in µM.

Completed entries (count: 5):
>>> number("Oc1nc2nc(O)n3c(c-2n1)SCCC3")
0.33
>>> number("CCCCCCNc1nc(O)c2[nH]cnc2n1")
32.1
>>> number("O=c1nc2[nH]c(=S)[nH]c2c2n1CCS2")
1.86
>>> number("CCCCCCOC(=O)C(=O)Nc1nc[nH]c1C(N)=O")
0.26
>>> number("O=c1[nH]c2nc(SCc3ccccc3)[nH]c(=O)c2[nH]1")
4.49

Query string: Look at this compound and give its reported Ki. O=c1[nH]c2nc(S(=O)(=O)Cc3ccccc3)[nH]c(=O)c2[nH]1
Result string: 77.8

Query string: Request: CCCCOC(=O)C(=O)Nc1nc[nH]c1C(N)=O
Result string: 1.06

Query string: Request: CCCCNc1nc(O)c2[nH]cnc2n1
Result string: 17.7

Query string: Request: Oc1nc2nc(-c3ccccc3)nc-2c2n1CCCS2
Result string: 93

Query string: Request: CCCCCC(=O)Nc1nc[nH]c1C(N)=O
Result string: 2.56
